Target: cat T1R1/T1R3 receptor (Felis catus, UniProt E3UMS2)
Test: cell-based
Details: in the presence of 20 mM alanine; read-out: EC50-with Ala
parameter: EC50
Number plus unit, in that order.

Some entries whose results are on file:
Nc1nc2c(ncn2[C@@H]2O[C@H](COP(=O)(O)O)[C@@H](O)[C@H]2O)c(=O)[nH]1 [GMP, guanosine monophosphate, reference compound] | 20 µM
O=P(O)(O)OC[C@H]1O[C@@H](n2cnc3c2ncn2ccnc32)C[C@@H]1O | 200 µM

Shifting focus to the compound that follows.
Prompt: Field request: EC50 | item: Nc1nc2c(ncn2[C@H]2C[C@H](OP(=O)(O)O)[C@@H](COP(=O)(O)O)O2)c(=O)[nH]1 [2′-Deoxyguanosine-3′,5′-O-bisphosphate]
Completion: 20 µM

Reference for the values: patent US20190021380A1
